Hey, just so you know, these numbers are from patent EP4786492A1.

Target Under Test: T1, monkey DLL3 on CHO K1-cyno DLL3 cells (cynomolgus monkey)
T1 construct: also called monkey DLL3 recombinant cell line
T1 chain: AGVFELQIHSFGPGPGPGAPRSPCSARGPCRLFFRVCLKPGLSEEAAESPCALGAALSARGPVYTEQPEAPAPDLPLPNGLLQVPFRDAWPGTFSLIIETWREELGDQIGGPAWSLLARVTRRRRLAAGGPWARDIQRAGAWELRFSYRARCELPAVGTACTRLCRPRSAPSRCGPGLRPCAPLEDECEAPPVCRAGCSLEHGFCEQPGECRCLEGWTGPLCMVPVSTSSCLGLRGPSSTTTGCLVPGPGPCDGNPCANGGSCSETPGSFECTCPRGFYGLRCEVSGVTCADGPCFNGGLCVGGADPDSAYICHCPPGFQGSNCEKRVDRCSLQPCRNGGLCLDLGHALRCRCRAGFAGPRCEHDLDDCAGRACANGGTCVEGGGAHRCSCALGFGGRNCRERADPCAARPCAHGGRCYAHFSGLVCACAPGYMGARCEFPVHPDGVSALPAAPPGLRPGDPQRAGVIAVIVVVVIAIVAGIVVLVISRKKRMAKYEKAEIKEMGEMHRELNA
Experiment Summary: FACS, CHO K1-cyno DLL3 cells

Binder: mab003 scFv-hFc (Fc fusion, human-murine chimeric scFv-hFc, VL-linker-VH-human IgG1 Fc; not shown: linker; Fc fragment of human IgG1) scFv (part 1 of 2): DVQITQSPSYLAASPGETITINCRASKSISKYLAWYQEKPGKTNKLLIYSGSTLHSGIPSRFSGSGSGTDFTLTISSLEPEDFAIYYCQQHNEYPLTFGGGTKLELK scFv (part 2 of 2): QVQLQQSGTELMKPGASVKLSCKATGYTFTGNWIEWVKQRPGHGLEWIGEILPGTGSTQYNEKFKGKATFTADPSSNTAYMQLSSLTTEDSAIYYCARWGSTVVAYDYWGQGTTLTVSS
binding result: binds
//
Binder: Hab006VL4VH2-hFc (Fc fusion, humanized mab006, VL-linker-VH-human IgG1 Fc; also called Hab006VL4VL2-hFc; not shown: linker; human IgG1 Fc fragment) scFv (part 1 of 2): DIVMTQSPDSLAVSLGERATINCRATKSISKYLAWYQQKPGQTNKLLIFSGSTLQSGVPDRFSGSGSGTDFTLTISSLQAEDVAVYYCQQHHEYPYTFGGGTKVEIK scFv (part 2 of 2): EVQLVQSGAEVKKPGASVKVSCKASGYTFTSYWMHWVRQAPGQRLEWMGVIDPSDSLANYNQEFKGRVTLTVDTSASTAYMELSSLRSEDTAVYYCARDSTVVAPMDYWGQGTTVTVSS
binding result: binds
//
Binder: mab014 scFv-hFc (Fc fusion, human-murine chimeric scFv-hFc, VL-linker-VH-human IgG1 Fc; not shown: linker; Fc fragment of human IgG1) scFv (part 1 of 2): DIQMTQSSSSFSVSLGDRVTITCKASEDIYNRLAWYQQKPGNTPRLLISGATSLETGVPSRFSGSGSGKDFTLSITSLQTEDVATYYCQQYWSLPWTFGGGTKLEIK scFv (part 2 of 2): EVQLHQSGPELVKPGTSVKISCKASGYTFTDYYMNWVKQSHGKSLEWIGDINPNHGDTGYNQKFTGKATLTVDKSSSTAYMELRSLTSEDSAVYYCARNFFYYGTTYGWYFDVWGTGTTVTVSS
binding result: binds
